Tested on: A549 cells expressing EGFP
experiment.description: EGFP-targeting siRNA delivery (GFP silencing vs siMOCK), A549
Assay type: cell-based
condition.summary: Dodecanal, 10 μM, A549 cells
*: point of attachment. NHNH2 = NN*
readout: percentage of GFP-silencing relative to siMOCK (%)

substance	test.value
Ac-RHLK*RLK*RRLK*RL-NH2 (Ac-RHLKRLKRRLKRL-NH2; not fully specified (residues 4, 7, 11); printed as Ac-RHLK*RLK*RRLK*RL-NH2; also: linker on K* not given here) [13(Arg-His)]	28
Ac-RHLK*RHK*RRLK*RH-NH2 (Ac-RHLKRHKRRLKRH-NH2; not fully specified (residues 4, 7, 11); printed as Ac-RHLK*RHK*RRLK*RH-NH2; also: linker on K* not given here) [13(3His)]	10
Ac-RRLK*RLLRRLK*RLK*RRL-NH2 (Ac-RRLK(NHNH2)RLLRRLK(NHNH2)RLK(NHNH2)RRL-NH2; not fully specified; printed as Ac-RRLK*RLLRRLK*RLK*RRL-NH2; also: K*4,K*11,K*14: native or modified lysine (ε-amide to a linker)) [Peptide 17.3]	4
Ac-RK*LRRLLRK*-NH2 (Ac-RK(NHNH2)LRRLLRK(NHNH2)-NH2; not fully specified; printed as Ac-RK*LRRLLRK*-NH2; also: K*2,K*9: native or modified lysine (ε-amide to a linker)) [Peptide 9.2]	29

----------
System: Hek293 cells
experiment.description: RLuc pDNA delivery, robotic library screening, Hek293
Type: cell-based
condition.summary: Palmitoleyl, 10 μM
*: point of attachment. NHNH2 = NN*
readout: mean luminescent intensity (RLuc pDNA) (RLU)

substance	tested.system	readout	test.value
Ac-RHLK*RHK*RRLK*RH-NH2 (Ac-RHLKRHKRRLKRH-NH2; not fully specified (residues 4, 7, 11); printed as Ac-RHLK*RHK*RRLK*RH-NH2; also: linker on K* not given here) [13(3His)]	Hek293 cells	mean luminescent intensity (RLuc pDNA)	51837
Ac-RHLK*RLK*RRLK*RL-NH2 (Ac-RHLKRLKRRLKRL-NH2; not fully specified (residues 4, 7, 11); printed as Ac-RHLK*RLK*RRLK*RL-NH2; also: linker on K* not given here) [13(Arg-His)]	Hek293 cells	mean luminescent intensity (RLuc pDNA)	124471
Ac-RRK*K*RK*LRRLLRL-NH2 [13(3b)]	Hek293 cells	mean luminescent intensity (RLuc pDNA)	33115
Ac-RRLK*RLLRRLK*RLK*RRL-NH2 (Ac-RRLK(NHNH2)RLLRRLK(NHNH2)RLK(NHNH2)RRL-NH2; not fully specified; printed as Ac-RRLK*RLLRRLK*RLK*RRL-NH2; also: K*4,K*11,K*14: native or modified lysine (ε-amide to a linker)) [Peptide 17.3]	Hek293 cells	mean luminescent intensity (RLuc pDNA)	1319

----------
Test system: A549 cells expressing EGFP
experiment.description: EGFP-targeting siRNA delivery (GFP silencing vs siMOCK), A549
Format: cell-based
condition.summary: Myristoleyl, 10 μM, A549 cells
Protocol: To generate an EGFP expressing HeLa cell line, HeLa cells were transfected with EGFP pDNA (pEGFP-C1, Clontech) and stable transfectants were selected with 400 μg/mL of G-418 (Millipore). […] Tables 1-7: RLuc (pDNA) or EGFP (mRNA) expression levels were normalized to Lipofectamine reagents (value=1) and expressed as fold-times signal increase. […] In both siRNA and Cas9-RNP, values are expressed as % fluorescence reduction. […]
*: point of attachment. NHNH2 = NN*
readout: percentage of GFP-silencing relative to siMOCK (%)

substance	test.value
Ac-RHLK*RHK*RRLK*RH-NH2 (Ac-RHLKRHKRRLKRH-NH2; not fully specified (residues 4, 7, 11); printed as Ac-RHLK*RHK*RRLK*RH-NH2; also: linker on K* not given here) [13(3His)]	28
Ac-RHLK*RLK*RRLK*RL-NH2 (Ac-RHLKRLKRRLKRL-NH2; not fully specified (residues 4, 7, 11); printed as Ac-RHLK*RLK*RRLK*RL-NH2; also: linker on K* not given here) [13(Arg-His)]	17
Ac-RRLK*RLLRRLK*RLK*RRL-NH2 (Ac-RRLK(NHNH2)RLLRRLK(NHNH2)RLK(NHNH2)RRL-NH2; not fully specified; printed as Ac-RRLK*RLLRRLK*RLK*RRL-NH2; also: K*4,K*11,K*14: native or modified lysine (ε-amide to a linker)) [Peptide 17.3]	8
Ac-RK*LRRLLRK*-NH2 (Ac-RK(NHNH2)LRRLLRK(NHNH2)-NH2; not fully specified; printed as Ac-RK*LRRLLRK*-NH2; also: K*2,K*9: native or modified lysine (ε-amide to a linker)) [Peptide 9.2]	−6

----------
System: ARPE19 cells expressing EGFP
experiment.description: EGFP-targeting siRNA delivery (GFP silencing vs siMOCK), ARPE19
Format: cell-based
condition.summary: Oleyl, 10 μM
*: point of attachment. NHNH2 = NN*
readout: percentage of GFP-silencing relative to siMOCK (%)

substance	test.value
Ac-RHLK*RLK*RRLK*RL-NH2 (Ac-RHLKRLKRRLKRL-NH2; not fully specified (residues 4, 7, 11); printed as Ac-RHLK*RLK*RRLK*RL-NH2; also: linker on K* not given here) [13(Arg-His)]	29
Ac-RHLK*RHK*RRLK*RH-NH2 (Ac-RHLKRHKRRLKRH-NH2; not fully specified (residues 4, 7, 11); printed as Ac-RHLK*RHK*RRLK*RH-NH2; also: linker on K* not given here) [13(3His)]	43
Ac-RRLK*RLLRRLK*RLK*RRL-NH2 (Ac-RRLK(NHNH2)RLLRRLK(NHNH2)RLK(NHNH2)RRL-NH2; not fully specified; printed as Ac-RRLK*RLLRRLK*RLK*RRL-NH2; also: K*4,K*11,K*14: native or modified lysine (ε-amide to a linker)) [Peptide 17.3]	22
Ac-RRLK*RLLRRLK*RL-NH2 (Ac-RRLK(NHNH2)RLLRRLK(NHNH2)RL-NH2; not fully specified; printed as Ac-RRLK*RLLRRLK*RL-NH2; also: K*4,K*11: native or modified lysine (ε-amide to a linker)) [Peptide 13.2]	22

----------
Below, each entry is listed with its recorded percentage of GFP-silencing relative to siMOCK.
System: ARPE19 cells expressing EGFP
experiment.description: EGFP-targeting siRNA delivery (GFP silencing vs siMOCK), ARPE19
Type: cell-based
condition.summary: Dodecanal, 15 μM
*: point of attachment. NHNH2 = NN*
readout: percentage of GFP-silencing relative to siMOCK (%)

substance	test.value
Ac-RHLK*RHK*RRLK*RH-NH2 (Ac-RHLKRHKRRLKRH-NH2; not fully specified (residues 4, 7, 11); printed as Ac-RHLK*RHK*RRLK*RH-NH2; also: linker on K* not given here) [13(3His)]	22
Ac-RRLK*RLLRRLK*RLK*RRL-NH2 (Ac-RRLK(NHNH2)RLLRRLK(NHNH2)RLK(NHNH2)RRL-NH2; not fully specified; printed as Ac-RRLK*RLLRRLK*RLK*RRL-NH2; also: K*4,K*11,K*14: native or modified lysine (ε-amide to a linker)) [Peptide 17.3]	22
Ac-RK*LRRLLRK*-NH2 (Ac-RK(NHNH2)LRRLLRK(NHNH2)-NH2; not fully specified; printed as Ac-RK*LRRLLRK*-NH2; also: K*2,K*9: native or modified lysine (ε-amide to a linker)) [Peptide 9.2]	30
Ac-RHLK*RLK*RRLK*RL-NH2 (Ac-RHLKRLKRRLKRL-NH2; not fully specified (residues 4, 7, 11); printed as Ac-RHLK*RLK*RRLK*RL-NH2; also: linker on K* not given here) [13(Arg-His)]	34

----------
Test system: HCT116 cells
experiment.description: RLuc pDNA delivery, robotic library screening, HCT116
Assay type: cell-based
condition.summary: Dodecanal, 10 μM
*: point of attachment. NHNH2 = NN*
Recorded mean luminescent intensity (RLuc pDNA) by entry

substance	unit.descriptor	mean luminescent intensity (RLuc pDNA)
Ac-RHLK*RHK*RRLK*RH-NH2 (Ac-RHLKRHKRRLKRH-NH2; not fully specified (residues 4, 7, 11); printed as Ac-RHLK*RHK*RRLK*RH-NH2; also: linker on K* not given here) [13(3His)]	RLU	7176
Ac-RRK*K*RK*LRRLLRL-NH2 [13(3b)]	RLU	17841
Ac-RHLK*RLK*RRLK*RL-NH2 (Ac-RHLKRLKRRLKRL-NH2; not fully specified (residues 4, 7, 11); printed as Ac-RHLK*RLK*RRLK*RL-NH2; also: linker on K* not given here) [13(Arg-His)]	RLU	20219
Ac-RK*LRRLLRK*-NH2 (Ac-RK(NHNH2)LRRLLRK(NHNH2)-NH2; not fully specified; printed as Ac-RK*LRRLLRK*-NH2; also: K*2,K*9: native or modified lysine (ε-amide to a linker)) [Peptide 9.2]	RLU	819
